Each recorded value in this set is attributed to patent US20040023313A1.

Target: T1, CHO human OPGL (hOPGL) 140 (human, UniProt O14788 140-317)
T1 construct: also called CHO hOPGL 140
T1 sequence (looked up): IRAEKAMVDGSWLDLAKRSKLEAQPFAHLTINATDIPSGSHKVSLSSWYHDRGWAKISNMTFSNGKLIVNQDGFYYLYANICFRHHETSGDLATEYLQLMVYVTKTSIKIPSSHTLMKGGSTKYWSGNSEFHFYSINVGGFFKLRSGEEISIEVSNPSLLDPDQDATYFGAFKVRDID
Experiment: SPR (BIAcore 2000), antibody captured on Protein G, hOPGL 140 in solution 0.25-62 nM, Langmuir 1:1

binder | koff (s⁻¹)
16E1 anti-OPGL antibody (antibody, V domains shown, Fully human IgG1 kappa from HuMab mice) VH: EVQLVQSGGGLVHPGGSLRLSCAGSGFTFSGHALHWVRQAPGKGLEWVSGIGTHGGTYYADSVKGRFTISRDNAKNSLFLQMNSLSAEDMAVYYCTRRNWGQFDYWGQGTLVTVSS VL: EIVLTQSPATLSLSPGERATLSCRASQSVSSYLAWYQQKPGQAPRLLIYDASNRATGIPARFSGSGSGTDFTLTISSLEPEDFAVYYCQQRSNWPPYTFGQGTKLEIKR | 0.000137
18B2 anti-OPGL antibody (antibody, V domains shown, Fully human IgG1 kappa from HuMab mice) VH: EVQLVQSGGGLVHPGGSLRLSCVGSRFTFSAYPMHWVRQAPGKGLEWVSGIGSGGGTNYADSVKGRFTISRDTAKNSLYLQMNSLRAEDMAVYYCARGRNSFDYWGQGTLVTVSS VL: DIQMTQSPSSLSASVGDRVTITCRASQGISTWLAWYQQKPEKAPKSLIYAASSLQSGVPSRFSGSGSGTDFTLTISSLQPEDFATYYCQQYNSYPPTFGQGTKVEIKR | 0.000186
22B3 anti-OPGL antibody (antibody, human IgG1, kappa, V domains shown, Fully human IgG1 kappa from HuMab mice) VH: EVQLVQSGGGLVHPGGSLRLSCEGSGFTFSSNGMHWVRQTPGKGLEWVSGIGTAGGTYYADSVKGRFTISRDNVKKSLYLQMNSLRAEDMAIYYCVRKNWGWFDPWGQGALVTVSS VL: EIVLTQSPATLSLSPGERATLSCRASQSVNSYLAWFQQKPGQAPRLLIYDASNRATGIPARFSGSGSGTDFTLTISSLEPEDFAIYYCQQRSNWPPFTFGQGTKLEIKR | 6.39e-05
2E11 anti-OPGL antibody (antibody, V domains shown, Fully human IgG1 kappa from HuMab mice; also called 2 µl 1) VH: EVQLVQSGGDLVHPGGSLRLSCVGSGFTFSHYPLHWVRQAPGKGLEWISGIHTGGGTYYTDSVKGRFTISSDNAKNSLYLQMNTLRAEDMAVYYCARGRNSFDYWGQGTLVIVSS VL: DIQMTQSPSSLSASVGDRVTITCRASQGISSWLAWYQQKPEKAPKSLIYAASSLQSGVPSRFSGSGSGTDFTLTISSLQSEDFATYYCQQYNSYPPTFGQGTRLEIKR | 0.000132
